experimental_system: Protein A-SQV-2 fusion protein (Caenorhabditis elegans, UniProt Q9N491)
Construct: protein A (modified, secreted); made in house; host or cells: COS7 cells, transient transfection; purified from culture supernatant on IgG-agarose
Sequence (Q9N491 25-330): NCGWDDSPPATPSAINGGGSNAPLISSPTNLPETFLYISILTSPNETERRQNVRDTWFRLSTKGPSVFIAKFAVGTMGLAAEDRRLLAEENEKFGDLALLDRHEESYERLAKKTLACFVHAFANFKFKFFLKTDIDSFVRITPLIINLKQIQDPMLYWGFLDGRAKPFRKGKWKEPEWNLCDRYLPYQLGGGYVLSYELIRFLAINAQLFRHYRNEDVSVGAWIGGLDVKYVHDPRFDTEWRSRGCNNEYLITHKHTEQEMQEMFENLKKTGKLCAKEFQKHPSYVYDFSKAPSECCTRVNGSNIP
experimental_protocol: Galactosyltransferase II assay, acceptor substrate specificity
Format: biochemical, C. elegans
condition_description: acceptor 5 mM, donor UDP-[3H]galactose
Provide the recorded Enzyme Activity for the entries that follow.

-- ask Find the measured Enzyme Activity of CC(=O)N[C@H]1[C@H](OCc2ccccc2)O[C@H](CO)[C@H](O)[C@@H]1O with Protein A-SQV-2 fusion protein (Caenorhabditis elegans, UniProt Q9N491) as test system.
-- reply 0 pmol/h/mL medium

-- ask Param request: Enzyme Activity | system Protein A-SQV-2 fusion protein (Caenorhabditis elegans, UniProt Q9N491) | item OC[C@H]1O[C@@H](O[C@@H]2CO[C@@H](OCc3ccccc3)[C@H](O)[C@H]2O)[C@H](O)[C@@H](O)[C@H]1O
-- reply 2660 pmol/h/mL medium

-- ask Output reported Enzyme Activity of the compound O[C@@H]1[C@@H](O)[C@H](OCc2ccccc2)OC[C@H]1O on Protein A-SQV-2 fusion protein (Caenorhabditis elegans, UniProt Q9N491).
-- reply 0 pmol/h/mL medium

-- ask Write Enzyme Activity of O[C@@H]1[C@@H](O)[C@H](OCc2ccc3ccccc3c2)OC[C@H]1O ; system used: Protein A-SQV-2 fusion protein (Caenorhabditis elegans, UniProt Q9N491)
-- reply 0 pmol/h/mL medium

-- ask Fetch value of Enzyme Activity on Protein A-SQV-2 fusion protein (Caenorhabditis elegans, UniProt Q9N491) for C=CCCCCCCCCO[C@H]1O[C@H](CO[C@H]2O[C@H](CO)[C@@H](O)[C@H](O)[C@@H]2O)[C@@H](O)[C@H](O)[C@@H]1O .
-- reply 0 pmol/h/mL medium
